- SYSTEM UNDER TEST: Cytochrome P450 2C9 (Homo sapiens) (UniProt P11712)
- Sequence (P11712 whole entry, looked up): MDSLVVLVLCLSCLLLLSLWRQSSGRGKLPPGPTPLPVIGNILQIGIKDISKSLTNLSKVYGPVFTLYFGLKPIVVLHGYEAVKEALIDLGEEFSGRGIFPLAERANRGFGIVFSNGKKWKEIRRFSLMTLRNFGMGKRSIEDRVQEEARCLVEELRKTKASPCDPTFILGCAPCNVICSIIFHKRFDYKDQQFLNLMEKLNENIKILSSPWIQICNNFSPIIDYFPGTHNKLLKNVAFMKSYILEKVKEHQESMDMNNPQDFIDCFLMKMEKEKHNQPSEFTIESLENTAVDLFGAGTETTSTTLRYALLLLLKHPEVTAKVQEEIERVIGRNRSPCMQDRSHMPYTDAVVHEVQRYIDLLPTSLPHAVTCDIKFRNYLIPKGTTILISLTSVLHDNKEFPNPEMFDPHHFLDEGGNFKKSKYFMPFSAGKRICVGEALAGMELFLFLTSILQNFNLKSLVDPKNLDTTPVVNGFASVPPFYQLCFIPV
- TEST: Cytochrome panel assay with activity outcomes
- CONDITION LABEL: recombinant CYP, pro-luciferin dealkylation, luminescence, p450-cyp2c9; series mostly up to 57.1 µM
Among all 16,000 compounds or so, about 4,000 (25%) were called active. Inconclusive results (about 26%) are left out. Calls follow the shape of the dose curve; as a rule, active = well fitted curve in the direction sought with a large enough effect; inconclusive = small, poorly fitted or top-dose-only effect, or effect the other way; inactive = no such curve, though single readings can be large or run the other way. A selection follows.
Labels: y for active, n for inactive

>>> label("CCCc1cc(=O)[nH]c(SCc2cc(Cl)ccc2OC(F)F)n1")
"y"
>>> label("COc1ccccc1CN1CCC2(CCNCC2)CC1")
"n"
>>> label("O=C(Nc1ccc2c(c1)OCCO2)C1CCN(C(=O)c2ccccc2)CC1")
"n"
>>> label("NC1CCN(c2cccc(Cl)n2)CC1")
"n"
>>> label("Cc1ccsc1/C=C1/SC(=O)N(CC(=O)N2CCOCC2)C1=O")
"n"
>>> label("COc1ncc2nc(-c3cn(C)c4ccccc34)c(=O)n(C)c2n1")
"n"
>>> label("Cc1noc(C)c1C(=O)N1CCC[C@@]2(CCN(C(=O)Nc3cccc(F)c3)C2)C1")
"n"
>>> label("CCCNC(=O)OC[C@@H]1O[C@H](CCO/N=C(\\C)CCN2CCc3nc(-c4ccccc4)c(-c4ccccc4)cc3C2)C=C[C@@H]1Oc1ccc(OC)cc1")
"y"
>>> label("CC1CCC(C(=O)NC(C(=O)N2CCC(N3CCCCC3)CC2)C(C)C)CC1 (centres undefined)")
"n"
>>> label("COc1ccc(Oc2ncc3nc(-c4cccs4)c(=O)n(-c4ccccc4)c3n2)cc1")
"n"
>>> label("COc1ccc(NC(=O)N2CCCC3(CCN(S(C)(=O)=O)CC3)C2)cc1")
"n"
>>> label("COC(Cc1nnc(SC)n1-c1ccccc1)OC")
"n"
>>> label("COc1ncc2nc(-c3cccs3)c(=O)n(-c3ccccc3)c2n1")
"n"
>>> label("Nc1ncnc(N(c2ccccc2)C2CCCCC2)c1[N+](=O)[O-]")
"n"
>>> label("Cc1cc(N2CCOCC2)ccc1/C=C1\\SC(=O)N(C(C)C)C1=O")
"y"
>>> label("c1ccc2oc(C3=NCCN3)cc2c1")
"n"
>>> label("Nc1ccc(S(=O)(=O)Nc2ccccn2)cc1")
"n"
>>> label("CC1Cc2ccccc2N1Cc1nc2cc(C(F)(F)F)ccc2c(=O)[nH]1 (centres undefined)")
"y"
>>> label("CS(=O)(=O)N1CCC[C@@]2(CCN(C(=O)Nc3ccccc3)C2)C1")
"n"
>>> label("O=C(Nc1ccccc1)N1CCCC2(CCN(S(=O)(=O)c3ccccc3)CC2)C1")
"y"
>>> label("COc1ccc(C(=O)N2CCC[C@@]3(CCN(CC(C)C)C3)C2)cc1")
"n"
>>> label("CCSC(=N)N")
"n"
>>> label("NOCC(=O)O")
"n"
>>> label("Cn1cc(-c2nc3cnc(Oc4ccccc4)nc3n(C3CC3)c2=O)c2ccccc21")
"n"
>>> label("Cc1ccc(NC(=O)CN2CCC(NC(=O)Cc3ccccc3)CC2)cc1C")
"y"
>>> label("O=C(Nc1ccccc1)N1CCC2(CC1)CCN(S(=O)(=O)c1ccccc1)CC2")
"n"
>>> label("CCOc1ccc(NCc2nnc(SCc3ccccc3Cl)n2-c2ccccc2)cc1")
"y"
>>> label("COc1ccc(Oc2ncc3nc(-c4cccs4)c(=O)n(C)c3n2)cc1")
"y"
>>> label("O=C(Cc1ccccc1)NC1CCN(S(=O)(=O)c2ccc(C(=O)O)cc2)CC1")
"n"
>>> label("Cc1cc(N)n(-c2ccccc2)n1")
"n"
>>> label("Cc1ccc(S(=O)(=O)N2CCN(C(=O)CN3CCN(C)CC3)C2)cc1")
"n"
>>> label("COc1ccc(O[C@H]2C=C[C@@H](c3ccccc3)O[C@H]2COC(=O)CC/C(C)=N\\OC[C@@H](O)[C@H]2O[C@H]3OC(C)(C)O[C@H]3[C@@H]2O)cc1")
"y"
>>> label("CC(=O)Nc1ccc2c(c1)OCCO2")
"n"
>>> label("CC(=O)OCC(=O)[C@@]1(O)CC[C@@H]2[C@H]3CCC4=CC(=O)CC[C@]4(C)[C@]3(F)[C@@H](O)C[C@@]21C")
"n"
>>> label("O=C(CC(c1ccccc1)c1ccccc1)Nc1ccc2c(c1)OCCO2")
"y"
>>> label("CCOC(=O)N1CCN(C(=O)CSCc2ccc(Cl)cc2)CC1")
"n"
>>> label("O=C(Nc1ccc2c(c1)OCCO2)c1cccc2nc3ccccc3nc12")
"y"
>>> label("CN(C)C(=N)N=C(N)N")
"n"
>>> label("COc1ccc(Oc2ncc3nc(-c4cc(F)cc(F)c4)c(=O)n(C)c3n2)cc1")
"n"
>>> label("COCCn1c(=O)c(-c2cccs2)nc2cnc(N(C)C)nc21")
"n"
>>> label("Clc1ccc2c(c1)C1=C(C(c3ccncc3)O2)C(c2ccc(Br)cc2)n2ncnc2N1 (centres undefined)")
"y"
>>> label("COc1ccc(NC(=O)N2CCCC3(CCN(S(=O)(=O)c4ccccc4)CC3)C2)cc1")
"y"
>>> label("COc1ccc(NC(=O)N2CC3(CCN(S(C)(=O)=O)CC3)C2)cc1")
"n"
>>> label("COc1ccc(NC(=O)N2CCC3(CC2)CCN(S(C)(=O)=O)CC3)cc1")
"y"

---

- SYSTEM UNDER TEST: Cytochrome P450 2C9 (Homo sapiens)
- TEST: Cytochrome panel assay with activity outcomes
- CONDITION LABEL: recombinant CYP, pro-luciferin dealkylation, luminescence, p450-cyp2c9; series mostly up to 57.1 µM
The campaign covered roughly 16,000 compounds. About 4,000 (25%) were called active. About 26% were inconclusive and are not listed. The call rests on the fitted dose curve; in most records, active means well fitted curve in the direction sought with a large enough effect; inconclusive means small, poorly fitted or top-dose-only effect, or effect the other way; inactive means no such curve, though single readings can be large or run the other way. Only a sample is shown.
Labels: yes (1) (active), no (0) (inactive)

>>> label("CCOC(=O)c1c(NC(=S)Nc2ccccc2)sc2c1CCN(CCc1ccccc1)C2")
"yes (1)"
>>> label("Cc1ccc(NC(=S)/C(=C(\\[O-])c2ccc(C)c([N+](=O)[O-])c2)[n+]2ccccc2)cc1C")
"no (0)"
>>> label("Cc1noc(C)c1C(=O)N1CCC2(CCN(C(=O)Nc3ccccc3)CC2)CC1")
"no (0)"
>>> label("COc1ccc(C(=O)C(OC(=O)CNC(=O)c2ccco2)c2ccccc2)cc1 (configuration not stated)")
"yes (1)"
>>> label("CCN(CC)S(=O)(=O)N1CCC(C(=O)NCc2ccc(C)cc2)CC1")
"no (0)"
>>> label("COC(=O)C1=C(C)NC(C)=C(C(=O)OCCSc2ccccc2)[C@@H]1C")
"yes (1)"
>>> label("C[C@@H]1O[C@H](O[C@@H]2[C@H](C)O[C@H](O[C@@H]3[C@H](C)O[C@H](O[C@H]4CC[C@]5(C)[C@@H](CC[C@@H]6[C@H]5C[C@@H](O)[C@]5(C)[C@@H](C7=CC(=O)OC7)CC[C@]65O)C4)C[C@@H]3O)C[C@@H]2O)C[C@H](O)[C@@H]1O")
"no (0)"
>>> label("O=C(O)CN(CCN(CC(=O)O)CC(=O)O)CCN(CC(=O)O)CC(=O)O")
"no (0)"
>>> label("Cc1cccc(Nc2cc(Cl)nc(SCC(=O)O)n2)c1C")
"no (0)"
>>> label("O=C(Nc1ccc(Cl)cc1)OCCn1nnnc1C(c1ccccc1Cl)N1CCOCC1 (configuration not stated)")
"yes (1)"
>>> label("COc1ccc2cc(CCNC(=O)C3CC3)c(=O)[nH]c2c1")
"no (0)"
>>> label("Cc1noc(C)c1C(=O)OCC(=O)NC(c1ccccc1)c1ccccc1")
"yes (1)"
>>> label("COC(=O)[C@@H]1C[C@H]1[C@@H](NC(=O)Oc1ccc(F)cc1)c1ccccc1")
"yes (1)"
>>> label("CC1=NOC(=O)/C1=C\\c1ccc(-c2ccc(Cl)cc2Cl)o1")
"yes (1)"
>>> label("COc1ccc(C(=O)NCC(=O)OCc2cccc(Br)c2)cc1")
"no (0)"
>>> label("Cc1ccc(C(=O)N/N=C\\c2ccc[nH]2)cc1[N+](=O)[O-]")
"no (0)"
>>> label("NC(N)=NC(=O)c1nc(Cl)c(N)nc1N")
"no (0)"
>>> label("Cc1nn(-c2nc3ccccc3[nH]2)c(N)c1-c1ccc(Cl)cc1")
"yes (1)"
>>> label("CCN1CCCC1CNC(=O)CCNC(=O)c1cc(OC)c(OC)c(OC)c1 (configuration not stated)")
"no (0)"
>>> label("O=c1cc(CN2CCN(c3ccc(F)cc3)CC2)c2cc3c(cc2o1)CCCC3")
"no (0)"
>>> label("O=C(c1cc(-c2cccs2)on1)N1CCN(c2ccc(F)cc2)CC1")
"yes (1)"
>>> label("CCC(C)(C)N=C(NC#N)Nc1cccnc1")
"no (0)"
>>> label("O=C(Nc1cccc(C(F)(F)F)c1)c1n[nH]c(Cn2cncn2)n1")
"yes (1)"
>>> label("Cc1cccc(Nc2ccccc2C(=O)O)c1C")
"yes (1)"
>>> label("Nc1ccc(S(=O)(=O)Nc2ccc(Cl)nn2)cc1")
"no (0)"
>>> label("O=C(Nc1ccccc1)N1CCCC2(CCN(C(=O)c3cnccn3)CC2)C1")
"no (0)"
>>> label("O=C(CNC(=O)c1ccco1)OC(C(=O)c1ccccc1)c1ccccc1 (configuration not stated)")
"yes (1)"
>>> label("COC1(OC)N=C(NC(=O)Nc2ccccc2)C2(C#N)C(c3ccccc3)C12C#N (configuration not stated)")
"yes (1)"
>>> label("COc1ccc(N2CCN(C(CNC(=O)C3CCCCC3)c3cccnc3)CC2)cc1 (configuration not stated)")
"no (0)"
>>> label("O=C(CSc1n[nH]c(-c2ccccc2O)n1)N1CCCc2ccccc21")
"yes (1)"
>>> label("O=C(O)[C@H]1CCCNC1")
"no (0)"
>>> label("CC(C)C[C@H](NC(=O)[C@@H](O)[C@H](N)Cc1ccccc1)C(=O)O")
"no (0)"
>>> label("CCCC(=O)N1c2ccccc2C(N(C(C)=O)c2ccccc2)CC1C (configuration not stated)")
"yes (1)"
>>> label("Cc1noc(C)c1C(=O)N1CCC2(CC1)CCN(C(c1ccccc1)c1ccccc1)CC2")
"no (0)"
>>> label("NC(=S)N/N=C/c1ccccc1OCc1cccc(Cl)c1")
"yes (1)"
>>> label("CCN1CCc2c(sc(NC(=S)NC(=O)c3ccccc3)c2C#N)C1")
"no (0)"
>>> label("Cc1cccc(NC(=O)CSc2nnc(-c3ccco3)c(-c3ccco3)n2)c1C")
"yes (1)"
>>> label("Cc1ccc(C(=O)NCc2ccc(N3CCN(C(=O)OC(C)(C)C)CC3)cc2)cc1")
"no (0)"
>>> label("Cc1cc(C)nc(SCC(=O)Nc2ccccc2[N+](=O)[O-])n1")
"no (0)"
>>> label("COc1cc(OC)c(C(=O)CCCCN2CCC3(CC2)NC(=O)NC3=O)cc1NS(=O)(=O)c1ccc(C(F)(F)F)cc1")
"no (0)"
>>> label("COC(=O)C1CC1C(NC(=O)[C@@H]1CCCN1)c1ccccc1 (some centres not stated)")
"no (0)"
>>> label("CN(C)CC/C=C1\\c2ccccc2Sc2ccc(Cl)cc21")
"no (0)"
